biological target: T1, Human TNFa N-his trimers (His-tagged TNF, produced at ESBATech) (human, UniProt P01375 77-233); test: SPR (BIAcore T100), His-tagged human TNF captured on NTA chip, scFv as analyte
T1 construct: Captured as trimers on a Ni-NTA sensor chip by the N-terminal His tags in the Biacore assay of the general methods; also called human TNFα; human TNF alpha; not shown: N-terminal His tag
T1 sequence (P01375 77-233 limits assumed): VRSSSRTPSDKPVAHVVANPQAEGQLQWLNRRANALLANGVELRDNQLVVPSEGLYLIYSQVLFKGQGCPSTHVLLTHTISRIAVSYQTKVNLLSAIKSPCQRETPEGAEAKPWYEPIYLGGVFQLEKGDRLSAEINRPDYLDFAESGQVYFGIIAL
Hi there, I'd appreciate the recorded kon for every entry that follows.
Value expressed in M⁻¹ s⁻¹; do not type the unit.

For this binder ( EP43_max (scFv, scFv NH2-VL-(GGGGS)4-VH-COOH; also called 676) scFv: EIVMTQSPSTLSASVGDRVIIKCQASQSISDWLAWYQQKPGKAPKLLIYGASRLASGFPSRFSGSGSGAEFTLTISGLEPADFATYYCQQGWSDSYVDNLFGQGTKLTVLGGGGGSGGGGSGGGGSGGGGSEVQLVESGGGLVQPGGSLRLSCTVSGFSLSSGAMSWVRQAPGKGLEWVGVIISSGATYYASWAKGRFTISKDTSKNTVYLQMNSLRAEDTAVYYCARGGPDDSNSMGTFDPWGQGTLVTVSS ), measured kon is 178000

For this binder ( EP1_max (scFv, scFv NH2-VL-(GGGGS)4-VH-COOH; also called 1072) scFv: EIVMTQSPSTLSASVGDRVIITCQSTESVYKNNYLAWYQQKPGKAPKLLIYDASTLASGVPSRFSGSGSGTEFTLTISSLQPDDFATYYCAGYYRSGSGTANGSFGQGTKLTVLGGGGGSGGGGSGGGGSGGGGSEVQLVESGGGSVQPGGSLRLSCTVSGIDLSNDAISWVRQAPGKGLEWVAYISDWSIRYYANWAQGRFTISKDTSKNTVYLQMNSLRAEDTATYYCARGAPGAGDNGIWGQGTTVTVSS ), measured kon is 11100

For this binder ( EP42_min (scFv, scFv NH2-VL-(GGGGS)4-VH-COOH; also called 1076) scFv: EIVMTQSPSTLSASVGDRVIITCQSTESVYKNNYLAWYQQKPGKAPKLLIYDASTLASGVPSRFSGSGSGAEFTLTISSLQPDDFATYYCAGYYRSGFGTANGSFGQGTKLTVLGGGGGSGGGGSGGGGSGGGGSEVQLVESGGGLVQPGGSLRLSCAASGFTFRNDAISWVRQAPGKGLEWVSYISDWGIKYYASWVKGRFTISRDNSKNTLYLQMNSLRAEDTAVYYCAKGAPGAGDNGIWGQGTLVTVSS ), measured kon is 142000
